pKi: −log10 of the molar value.
Reported values: pKi for Cannabinoid receptor 1 (Homo sapiens, UniProt P21554), one per item.

{"columns": ["substance-smiles", "result"],
 "data": [
  ["CSC(=S)N1CC(C)(C)CS/C1=N\\c1ccccc1C(C)C", "< 5.30"]
]}

# evaluate next
Reported pKi for CCOC(=O)N1CC(C)(C)CS/C1=N\c1ccccc1C(C)C : what is it? < 5.30

* * *

Reported values: Ki for Cannabinoid receptor 2 (Homo sapiens, UniProt P34972), one per item.
Numbers only, in nM.

Consider the following illustrative entries.
{"columns": ["molecule", "Ki [nM]"],
 "data": [
  ["CCSC(=S)N1CC(C)(C)CS/C1=N\\c1ccccc1C(C)C", 35],
  ["CSC(=S)N1CC(C)(C)CS/C1=N\\c1ccccc1", 316],
  ["CCN1CC(C)(C)CS/C1=N\\c1ccccc1C(C)C", 4880],
  ["CSC(=S)N1CC(C)(C)CS/C1=N\\c1cccc(C(C)C)c1", 33],
  ["CCOC(=S)N1CC(C)(C)CS/C1=N\\c1ccccc1C(C)C", 230]
]}

Lab note: each molecule below needs its Ki filled in.
1. CCCSC(=S)N1CC(C)(C)CS/C1=N\c1ccccc1C(C)C
2. CSC(=S)N1CC(C)CS/C1=N\c1ccccc1C(C)C (centres undefined)

119
98
